Biological target: hPR (Homo sapiens)
Test: T47D alkaline phosphatase assay, agonist mode
Type: cell-based
Settings: T47D, T47D human breast cancer cells; read-out: hPR Agonist T47D cells Eff. (%)
measured quantity: Emax
Reply with the number, then its unit.

Take a look at these entries with their results.
>>> test_value("CC1=CC(C)(C)Nc2ccc3c(c21)/C(=C/c1cc(F)ccc1C)Oc1c(F)cc(F)cc1-3")
"65%"
>>> test_value("CC1=CC(C)(C)Nc2ccc3c(c21)/C(=C/C#N)Oc1c(F)cc(F)cc1-3")
"72%"

Now for the molecule whose Emax we want.
Need Emax, item CC1=CC(C)(C)Nc2ccc3c(c21)/C(=C/c1cccc(F)c1)Oc1c(F)cc(F)cc1-3 56%

* * *

Reported hGR EC50 or IC50/hPR EC50 values follow for various molecules
Biological target: hGR (Homo sapiens, UniProt P04150)
Sequence (P04150 1-777): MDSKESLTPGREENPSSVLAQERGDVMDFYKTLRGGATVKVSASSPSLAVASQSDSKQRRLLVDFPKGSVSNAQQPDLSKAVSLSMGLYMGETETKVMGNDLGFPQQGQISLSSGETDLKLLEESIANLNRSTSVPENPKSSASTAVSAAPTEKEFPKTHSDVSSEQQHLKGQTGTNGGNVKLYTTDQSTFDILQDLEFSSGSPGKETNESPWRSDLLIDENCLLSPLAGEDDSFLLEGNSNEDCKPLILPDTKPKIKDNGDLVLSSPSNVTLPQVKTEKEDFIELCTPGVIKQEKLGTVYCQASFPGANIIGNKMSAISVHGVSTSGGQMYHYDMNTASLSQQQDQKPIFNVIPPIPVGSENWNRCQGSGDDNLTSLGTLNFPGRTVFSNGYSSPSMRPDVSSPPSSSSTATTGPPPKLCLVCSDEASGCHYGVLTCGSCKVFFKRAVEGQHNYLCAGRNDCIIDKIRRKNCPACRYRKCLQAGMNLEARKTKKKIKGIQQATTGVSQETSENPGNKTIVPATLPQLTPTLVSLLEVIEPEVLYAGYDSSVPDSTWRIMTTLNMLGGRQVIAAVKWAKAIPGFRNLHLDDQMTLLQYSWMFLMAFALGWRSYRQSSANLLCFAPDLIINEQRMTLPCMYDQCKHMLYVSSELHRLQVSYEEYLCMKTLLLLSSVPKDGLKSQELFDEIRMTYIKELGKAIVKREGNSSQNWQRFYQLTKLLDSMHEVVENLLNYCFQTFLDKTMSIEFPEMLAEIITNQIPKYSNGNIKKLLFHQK
Assay: hGR cotransfection assay (potency ratio to hPR)
Type: cell-based
Details: receptor-selectivity potency ratio, cotransfection assays
Number, no unit, nothing else.

Take a look at these entries with their results.
>>> test_value("CC1=CC(C)(C)Nc2ccc3c(c21)/C(=C/c1cccs1)Oc1c(F)cc(F)cc1-3 [Compound 31]")
59
>>> test_value("CC1=CC(C)(C)Nc2ccc3c(c21)C(c1ccc(Cl)c(C)c1)Oc1c(F)cc(F)cc1-3 (racemic) [Compound 37]")
54
>>> test_value("CC1=CC(C)(C)Nc2ccc3c(c21)C(c1cccc(Cl)c1)Oc1c(F)cc(F)cc1-3 (racemic) [Compound 41]")
105
>>> test_value("CC1=CC(C)(C)Nc2ccc3c(c21)C(c1cc2ccccc2s1)Oc1c(F)cc(F)cc1-3 (racemic) [Compound 63]")
8.8

Now for the molecule whose hGR EC50 or IC50/hPR EC50 we want.
Need hGR EC50 or IC50/hPR EC50, item CC1=CC(C)(C)Nc2ccc3c(c21)/C(=C/c1ccncc1)Oc1c(F)cc(F)cc1-3 [Compound 14] 365

* * *

Biological target: hPR (Homo sapiens, UniProt P06401)
Assay: T47D alkaline phosphatase assay, agonist mode
Type: cell-based
Conditions: T47D, T47D human breast cancer cells; read-out: hPR Agonist T47D cells Eff. (%)
measured quantity: Emax (%)
The answer is to be given in %; state only the numeric part.

Form field - read-out: Emax; system: hPR (Homo sapiens, UniProt P06401); submitted item: CC#CC1Oc2c(F)cc(F)cc2-c2ccc3c(c21)C(C)=CC(C)(C)N3 (racemic) 58

Form field - read-out: Emax; system: hPR (Homo sapiens, UniProt P06401); submitted item: CC1=CC(C)(C)Nc2ccc3c(c21)C(c1cc2ccccc2s1)Oc1c(F)cc(F)cc1-3 (racemic) 61

Form field - read-out: Emax; system: hPR (Homo sapiens, UniProt P06401); submitted item: CC1=CC(C)(C)Nc2ccc3c(c21)/C(=C/c1ccsc1)Oc1c(F)cc(F)cc1-3 66

* * *

Reported hPR Agonist T47D cells Eff. (%) values follow for various compounds
Target: hPR (Homo sapiens)
Experiment: T47D alkaline phosphatase assay, agonist mode
Format: cell-based
Conditions: T47D human breast cancer cells
The answer is to be given in %; state only the numeric part.

Take a look at these entries with their results.
>>> test_value("CC1=CC(C)(C)Nc2ccc3c(c21)C(c1ccc(Cl)c(C)c1)Oc1c(F)cc(F)cc1-3 (single isomer, unassigned; (-)) [Compound 38]")
54
>>> test_value("C#C[C@]1(O)CC[C@H]2[C@@H]3CCC4=CC(=O)CC[C@@H]4[C@H]3C(=C)C[C@@]21CC [3-ketodesogestrel, reference compound]")
94

Need hPR Agonist T47D cells Eff. (%), item CC(=O)O[C@]1(C(C)=O)CC[C@H]2[C@@H]3C[C@H](C)C4=CC(=O)CC[C@]4(C)[C@H]3CC[C@@]21C [MPA, reference compound] 114

* * *

Target: hPR (Homo sapiens)
Assay: hPR cotransfection assay in CV-1 cells, agonist mode
Assay type: cell-based
Settings: Tables 3 and 4, values without footnote; read-out: hPR agonist potencies (EC50 in nM) in the cotransfection assay
Reported EC50 values follow for various compounds

Need EC50, item CC1=CC(C)(C)Nc2ccc3c(c21)/C(=C/c1cccs1)Oc1ccc(F)cc1-3 [Formula II X=9-F 2-Thienyl, reference compound] 18 nM

Need EC50, item CC1=CC(C)(C)Nc2ccc3c(c21)/C(=C/c1ccccc1C)Oc1ccc(O)cc1-3 [Formula II X=9-OH 2-Me-Ph, reference compound] 9.3 nM

Need EC50, item COc1ccc2c(c1)O/C(=C\c1ccccc1Cl)c1c-2ccc2c1C(C)=CC(C)(C)N2 [Formula II X=8-OMe 2-Cl-Ph, reference compound] > 1000 nM

* * *

Biological target: hPR (Homo sapiens, UniProt P06401)
Sequence (P06401 1-933): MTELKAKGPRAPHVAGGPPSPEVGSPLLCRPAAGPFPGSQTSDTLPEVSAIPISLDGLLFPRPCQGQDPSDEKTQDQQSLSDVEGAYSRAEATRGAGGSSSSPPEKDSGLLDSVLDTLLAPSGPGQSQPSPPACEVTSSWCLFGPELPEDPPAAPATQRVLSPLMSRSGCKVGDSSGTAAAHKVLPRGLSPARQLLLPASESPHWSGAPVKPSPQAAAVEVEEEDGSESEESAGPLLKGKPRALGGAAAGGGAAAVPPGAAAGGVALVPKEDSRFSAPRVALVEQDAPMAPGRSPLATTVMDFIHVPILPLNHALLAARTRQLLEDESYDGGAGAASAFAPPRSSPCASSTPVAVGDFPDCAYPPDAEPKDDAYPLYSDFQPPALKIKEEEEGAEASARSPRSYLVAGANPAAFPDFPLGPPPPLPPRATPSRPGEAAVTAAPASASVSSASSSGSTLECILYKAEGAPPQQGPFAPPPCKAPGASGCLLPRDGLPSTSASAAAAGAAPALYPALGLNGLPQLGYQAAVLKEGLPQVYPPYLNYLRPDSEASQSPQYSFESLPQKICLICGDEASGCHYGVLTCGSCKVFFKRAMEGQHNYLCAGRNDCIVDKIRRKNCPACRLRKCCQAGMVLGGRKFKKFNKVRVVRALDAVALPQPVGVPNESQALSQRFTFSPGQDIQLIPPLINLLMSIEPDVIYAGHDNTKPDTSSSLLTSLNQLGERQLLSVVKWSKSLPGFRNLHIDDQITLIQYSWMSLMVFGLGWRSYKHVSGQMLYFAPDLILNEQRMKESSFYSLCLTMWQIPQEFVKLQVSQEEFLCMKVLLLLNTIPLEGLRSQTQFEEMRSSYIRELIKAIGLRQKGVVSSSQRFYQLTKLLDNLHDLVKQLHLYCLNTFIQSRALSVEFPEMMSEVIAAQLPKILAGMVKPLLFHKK
Assay: hPR cotransfection assay in CV-1 cells, agonist mode
Assay type: cell-based
Conditions: CV-1 cells; read-out: hPR Agonist CV-1 Cells EC50
measured quantity: pEC50
Convention used: pEC50 is expressed as -log10 of the molar concentration.

Take a look at these entries with their results.
>>> test_value("CC1=CC(C)(C)Nc2ccc3c(c21)C(c1ccc(Cl)c(C)c1)Oc1c(F)cc(F)cc1-3 (single isomer, unassigned; (-)) [Compound 38]")
8.92
>>> test_value("CC1=CC(C)(C)Nc2ccc3c(c21)/C(=C/c1cccs1)Oc1c(F)cc(F)cc1-3 [Compound 31]")
8.57
>>> test_value("CC1=CC(C)(C)Nc2ccc3c(c21)/C(=C/c1ccccc1)Oc1c(F)cc(F)cc1-3 [Compound 10]")
8.31
>>> test_value("CC1=CC(C)(C)Nc2ccc3c(c21)/C(=C/Br)Oc1c(F)cc(F)cc1-3 [Compound 29]")
8.64

Need pEC50, item CC1=CC(C)(C)Nc2ccc3c(c21)/C(=C/c1ccncc1)Oc1c(F)cc(F)cc1-3 [Compound 14] 8.13

Need pEC50, item CC1=CC(C)(C)Nc2ccc3c(c21)/C(=C/c1ccsc1)Oc1c(F)cc(F)cc1-3 [Compound 30] 8.28

Need pEC50, item CC1=CC(C)(C)Nc2ccc3c(c21)C(c1ccc(Cl)c(C)c1)Oc1c(F)cc(F)cc1-3 (single isomer, unassigned; (+)) [Compound 39] 7.55
